# experimental_system: Hck tyrosine kinase (Homo sapiens (Human), UniProt P08631)
# Sequence (P08631 whole entry): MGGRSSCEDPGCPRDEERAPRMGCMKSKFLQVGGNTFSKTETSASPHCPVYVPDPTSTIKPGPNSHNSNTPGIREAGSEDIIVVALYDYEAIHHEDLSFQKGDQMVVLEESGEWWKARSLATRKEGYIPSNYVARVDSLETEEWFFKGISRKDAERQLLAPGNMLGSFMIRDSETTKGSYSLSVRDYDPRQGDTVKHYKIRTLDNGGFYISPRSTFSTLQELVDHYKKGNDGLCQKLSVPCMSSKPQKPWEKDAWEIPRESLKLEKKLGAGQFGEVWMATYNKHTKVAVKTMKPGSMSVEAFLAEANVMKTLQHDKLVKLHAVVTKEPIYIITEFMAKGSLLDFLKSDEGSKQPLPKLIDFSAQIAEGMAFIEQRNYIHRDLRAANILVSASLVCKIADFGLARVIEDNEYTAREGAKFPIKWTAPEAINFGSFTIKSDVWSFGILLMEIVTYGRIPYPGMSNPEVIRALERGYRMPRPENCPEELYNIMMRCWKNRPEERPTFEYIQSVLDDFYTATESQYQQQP
# procedure_text: in vitro Hck tyrosine kinase inhibition
# Assay type: biochemical
# protocol_conditions: 1 uM compound; read-out: % inhibition against Hck
observed_property: inhibition at 1 µM

Look over these answered cases.
compound	inhibition at 1 µM
Oc1cccc(Nc2ncnc3cc(-c4ccsc4)sc23)c1	> 40%
COc1ccc(-c2cc3ncnc(Nc4cccc(O)c4)c3s2)cc1	> 60%
Oc1cccc(Nc2ccnc3cc(-c4ccc(CN5CCOCC5)cc4)sc23)c1	> 60%
CN1CCN(Cc2ccc(-c3cc4nccc(Nc5cccc(O)c5)c4s3)cc2)CC1	> 60%

Consider now this further compound.
Inquiry: Report inhibition at 1 µM from Hck tyrosine kinase (Homo sapiens (Human), UniProt P08631) testing of "Cl.Oc1cccc(Nc2ncnc3cc(-c4ccc(CN5CCCC5)cc4)sc23)c1"
Reply text: > 70%
